system: PPARg:RXRa (NR concentration 180 nM, RXRa partner concentration 90 nM); experiment: PBM binding z-score (relative to random genomic background probes); higher = stronger binding; sequences stand for … in GC…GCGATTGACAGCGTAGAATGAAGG
Answer each item with its documented PBM binding z-score.
One number for each entry.

Would you please look over these solved cases?
>>> print(df.to_string())
                     polymer_sequence    quantity_measured  experimental_result
0  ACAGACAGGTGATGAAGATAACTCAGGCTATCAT  PBM binding z-score                0.734
1  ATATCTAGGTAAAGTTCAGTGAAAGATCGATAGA  PBM binding z-score                 5.08

Hi there! I need PBM binding z-score for each item below, if you can.
1. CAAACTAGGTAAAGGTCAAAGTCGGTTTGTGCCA
2. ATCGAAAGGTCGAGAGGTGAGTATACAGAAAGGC
3. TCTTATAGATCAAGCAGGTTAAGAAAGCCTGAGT
4. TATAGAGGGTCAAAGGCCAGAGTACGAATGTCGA
5. CGTCAAAGTTCAACTACGGTAACGTAAAGCACGC
6. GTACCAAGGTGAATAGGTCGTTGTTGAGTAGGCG

A)
[7.83, 3.42, -0.00693, 8.05, 4.85, 1.18]

---

system: PPARg:RXRa DBDmut IVT, anti-RXR (DBD mutation: RXRa K156A/R161A, NR concentration 270 nM, RXRa partner concentration 90 nM); experiment: PBM binding z-score (relative to random genomic background probes); higher = stronger binding; sequences stand for … in GC…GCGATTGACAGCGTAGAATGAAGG
Decision: PBM binding z-score compared against 4; not below it gives True, below it gives False.

Please review the entries below; each comes with its answer.
In [3]: df
Out[3]:
                     polymer_sequence  discrete_label
0  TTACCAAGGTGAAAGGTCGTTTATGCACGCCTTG           False
1  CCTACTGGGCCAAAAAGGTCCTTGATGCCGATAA           False

Q) # check: PBM binding z-score of `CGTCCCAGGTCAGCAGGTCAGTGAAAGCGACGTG` is greater than or equal to 4
A) False

Q) # check: PBM binding z-score of `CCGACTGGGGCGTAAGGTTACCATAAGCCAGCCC` is greater than or equal to 4
A) False

Q) # check: PBM binding z-score of `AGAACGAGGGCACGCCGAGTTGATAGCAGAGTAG` is greater than or equal to 4
A) False

Q) # check: PBM binding z-score of `AATACAGGGTCACTAGGCCAAAGTAGGTACGAAT` is greater than or equal to 4
A) True

---

tested on: PPARg:RXRa 90nM:30nM, anti-RXR (NR concentration 90 nM, RXRa partner concentration 30 nM); experiment: PBM binding z-score (relative to random genomic background probes); higher = stronger binding; sequences stand for … in GC…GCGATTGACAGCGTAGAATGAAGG
quantity.measured: PBM binding z-score
Give bare numbers.

                     polymer_sequence    quantity_measured  experimental_result
0  TCTCTTAGTTGATTAGGGCAACCGAAACAGCGGA  PBM binding z-score                  3.1
1  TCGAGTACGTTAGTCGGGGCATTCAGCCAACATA  PBM binding z-score                0.775

Hi there! I need PBM binding z-score for each item below, if you can.
1. TCTTGTAGATCAGCAGGAGGTTAAGAAAGATCGA
2. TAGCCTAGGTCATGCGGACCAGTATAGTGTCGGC
3. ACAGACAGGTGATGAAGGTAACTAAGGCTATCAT
4. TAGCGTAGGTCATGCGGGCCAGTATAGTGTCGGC

A)
1: 1.74; 2: 1.38; 3: 0.0556; 4: 1.45

Hi there! I need PBM binding z-score for each item below, if you can.
1. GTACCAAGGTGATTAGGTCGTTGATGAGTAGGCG
2. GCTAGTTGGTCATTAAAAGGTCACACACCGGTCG
3. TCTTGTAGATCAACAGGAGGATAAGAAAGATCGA
4. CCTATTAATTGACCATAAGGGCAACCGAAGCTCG
5. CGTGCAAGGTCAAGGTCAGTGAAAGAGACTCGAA
6. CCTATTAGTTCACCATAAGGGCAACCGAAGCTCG

A)
1: 0.0201; 2: 2.68; 3: 1.61; 4: 0.73; 5: 5.51; 6: 0.491
